- Test system: SF-268 CNS
- assay.details: NCI tumour cell line growth inhibition, 48 h; in the data active = GI50 below about 0.43 µM; inactive = the rest
Classes to choose from: true (1) for active, false (0) for inactive

Reference set (5 entries):
Ask | Please share the test call associated with CC(=O)[CH-]C(=O)c1ccccc1.CC(=O)[CH-]C(=O)c1ccccc1.[O-]Cc1cccs1.[O-]Cc1cccs1.[Ti+4] .
Reply | false (0)

Ask | Please share the test call associated with CC/C(=C(/CC)c1ccc(OP(=O)([O-])[O-])cc1)c1ccc(OP(=O)([O-])[O-])cc1.N.N.N.N.[Pt+4].[Pt+4] .
Reply | false (0)

Ask | Please share the test call associated with C/C(=N\NC(=S)Nc1ccccc1)c1ccccn1 .
Reply | true (1)

Ask | Please share the test call associated with Cc1nc(N=C(N)N)nc2ccc3ccccc3c12 .
Reply | false (0)

Ask | Please share the test call associated with C=C1CCC2C3(C)COC(c4cccc(Cl)c4)OC3CCC2(C)C1/C=C/C1=CCOC1=O (stereo unspecified) .
Reply | false (0)

Continuing:
Ask | Please share the test call associated with c1ccc(CNc2nc(Nc3ccc(-c4nc5ccccc5[nH]4)cc3)c3cn[nH]c3n2)cc1 .
Reply | false (0)

* * *

- Tested on: UACC-62 melanoma
- assay.details: NCI tumour cell line growth inhibition, 48 h
experimental.readout: GI50

# annotated cases, reported GI50 shown
Ask | Fill in the blank: the reported GI50 of c1ccc(COc2ccc(Nc3ncnc4ccc(-c5ccco5)cc34)cc2)cc1 is ____.
Reply | 5750 nM

Ask | Fill in the blank: the reported GI50 of Oc1ccc(-c2nc(-c3ccc(F)cc3)c(-c3ccncc3)[nH]2)cc1 is ____.
Reply | 3000 nM

Ask | Fill in the blank: the reported GI50 of c1ccc(CNc2nc(Nc3ccc(-c4nc5ccccc5[nH]4)cc3)c3cn[nH]c3n2)cc1 is ____.
Reply | 2130 nM

Ask | Fill in the blank: the reported GI50 of C/C=C(\C)C(=O)O[C@@H]1C=CC(=O)O[C@H]1COC(=O)[C@H](C)O is ____.
Reply | 12400 nM

--- query ---
Ask | Fill in the blank: the reported GI50 of C=C(CNCCc1ccc(O)cc1)[C@@H]1CC[C@]2(CO)CC[C@]3(C)[C@H](CC[C@@H]4[C@@]5(C)CCC(NCCO)C(C)(C)[C@@H]5CC[C@]43C)[C@@H]12 (stereo not given in full) is ____.
Reply | 1790 nM

* * *

- Tested on: SF-539 CNS
- assay.details: NCI tumour cell line growth inhibition, 48 h; in the data active means GI50 below about 0.43 µM; inactive means the rest
Classes to choose from: active, inactive

Reference set (4 entries):
Ask | Please share the test call associated with C#CCSc1nnnn1-c1ccc(Br)c(C)c1 .
Reply | inactive

Ask | Please share the test call associated with c1ccc(CNc2nc(Nc3ccc(-c4nc5ccccc5[nH]4)cc3)c3cn[nH]c3n2)cc1 .
Reply | inactive

Ask | Please share the test call associated with CCOC(=O)/C(=C/c1c(-c2ccccc2)[nH]c2ccccc12)C(=O)c1ccc(Cl)cc1 .
Reply | inactive

Ask | Please share the test call associated with CC1OC(OC2C(OC3CCC4(C)C(CCC5(C)C4CC=C4C6CC(C)(C)CCC6(CO)C(O)CC45C)C3(C)C)OC(C(=O)O)C(OC3OC(COC4OC(CO)C(O)C(O)C4O)C(O)C(O)C3O)C2O)C(O)C(O)C1O (stereo not drawn) .
Reply | inactive

Continuing:
Ask | Please share the test call associated with Cn1cccc1C1CC(=O)N(CCC[Se]C#N)C1=O (stereo not drawn) .
Reply | inactive

Ask | Please share the test call associated with C=C(CNCCc1ccc(O)cc1)[C@@H]1CC[C@]2(CO)CC[C@]3(C)[C@H](CC[C@@H]4[C@@]5(C)CCC(NCCO)C(C)(C)[C@@H]5CC[C@]43C)[C@@H]12 (stereo partly drawn) .
Reply | inactive

Ask | Please share the test call associated with CC[C@]12C=CCN3CC[C@]4(C(=C(C(=O)OC)C1)Nc1ccccc14)[C@@H]32 .
Reply | inactive

Ask | Please share the test call associated with Cc1ccc2c(c1)/C(=N\N=C/c1cn(C(C)C)c3ccccc13)C(=O)N2 .
Reply | inactive

Ask | Please share the test call associated with COc1cc(-c2cn(-c3ccc(Cl)cc3)c(=O)n2-c2ccccc2)cc(OC)c1OC .
Reply | inactive

Ask | Please share the test call associated with Cn1cc(-c2ccc3c(c2)ncn3-c2ccc(CC(=O)Nc3cc(C(C)(C)C)on3)cc2)cn1 .
Reply | active

Ask | Please share the test call associated with O=C(/C=C/c1cccnc1)/C=C/c1cccnc1 .
Reply | inactive

Ask | Please share the test call associated with CC/C(=C(/CC)c1ccc(OP(=O)([O-])[O-])cc1)c1ccc(OP(=O)([O-])[O-])cc1.N.N.N.N.[Pt+4].[Pt+4] .
Reply | inactive

Ask | Please share the test call associated with c1ccc(COc2ccc(Nc3ncnc4ccc(-c5ccco5)cc34)cc2)cc1 .
Reply | inactive

* * *

- System: HL-60(TB) leukemia
- assay.details: NCI tumour cell line growth inhibition, 48 h; in the data active = GI50 below about 0.43 µM; inactive = the rest
Classes to choose from: active, inactive

Ask | Please share the test call associated with COc1ccc(C2=NN(c3ccc(S(N)(=O)=O)cc3)C(c3ccc(Cl)cc3)C2)c(O)c1 (centres undefined) .
Reply | inactive

Ask | Please share the test call associated with C#CCSc1nnnn1-c1ccc(Br)c(C)c1 .
Reply | inactive

Ask | Please share the test call associated with O=C1c2cccnc2-c2nc(-c3ccccc3)cc3c2c1nc1ccccc13 .
Reply | inactive

Continuing:
Ask | Please share the test call associated with O=C(O)Cc1ccccc1 .
Reply | inactive

* * *

Reported TGI values follow for various compounds
- Tested on: HOP-62 NSCLC
- assay.details: NCI tumour cell line growth inhibition, 48 h
Reply with just the number (in µM).

Ask | Fill in the blank: the reported TGI of Cn1cccc1C1CC(=O)N(CCC[Se]C#N)C1=O (stereo unspecified) is ____.
Reply | 3.77

* * *

- System: NCI/ADR-RES ovarian
- assay.details: NCI tumour cell line growth inhibition, 48 h
experimental.readout: TGI

# annotated cases, reported TGI shown
Ask | Fill in the blank: the reported TGI of O=C1NC(c2ccccc2)C1N(Cc1ccccc1)Cc1ccccc1 (centres undefined) is ____.
Reply | > 100 µM

Ask | Fill in the blank: the reported TGI of CCOC(=O)c1c(C)n(-c2ccc(C)cc2)c2c1cc(O)c1[nH]c3c(c12)CCCC3 is ____.
Reply | > 100 µM

Ask | Fill in the blank: the reported TGI of COc1cc(-c2c(C(C)=O)c(-c3ccccc3)n(C3OC(COC(C)=O)C(OC(C)=O)C(OC(C)=O)C3OC(C)=O)c(=S)c2C#N)ccc1O (centres undefined) is ____.
Reply | > 100 µM

Ask | Fill in the blank: the reported TGI of COc1ccc(N=C/C=C/C(=C/COC(C)=O)OC(C)=O)cc1 is ____.
Reply | > 100 µM

Ask | Fill in the blank: the reported TGI of CC1=NN(c2ccccc2Cl)C2(C1)SCC(=O)N2c1nc2ccccc2s1 (centres undefined) is ____.
Reply | > 100 µM

Continuing:
Ask | Fill in the blank: the reported TGI of COc1cc2nc(-c3ccc(Cl)cc3)cc(OCCCN3CCC(O)CC3)c2cc1OC is ____.
Reply | 14.8 µM

Ask | Fill in the blank: the reported TGI of COc1cccc2c(=O)c3c(O)c4cc(N(C)C)ccc4c(OC(C)=O)c3oc12 is ____.
Reply | 60.5 µM

Ask | Fill in the blank: the reported TGI of CSc1nc2ccccc2c(=O)n1-c1cccc(C)c1 is ____.
Reply | > 100 µM

Ask | Fill in the blank: the reported TGI of CCC/C(Cl)=N/OC(=O)Nc1cccc(F)c1 is ____.
Reply | > 21.1 µM

Ask | Fill in the blank: the reported TGI of CCOC(=O)C(NC(=O)Nc1ccccc1F)(OC)C(F)(F)F (centres undefined) is ____.
Reply | > 100 µM

Ask | Fill in the blank: the reported TGI of COc1ccc2c(c1)OCC1Cc3cccc(OC)c3OC21 (centres undefined) is ____.
Reply | > 100 µM

Ask | Fill in the blank: the reported TGI of O=C1c2ccccc2-c2ccc(N(Cc3ccc(Br)cc3)Cc3ccc(Br)cc3)cc21 is ____.
Reply | > 100 µM

Ask | Fill in the blank: the reported TGI of CC(=O)NC1C(OCc2ccccc2)OC(CO)C(O)C1OCC(=O)NC(C)C(=O)NC(CCC(=O)Nc1ccc2c(c1)CN1C(=O)c3ccccc3C1=N2)C(N)=O (centres undefined) is ____.
Reply | > 100 µM

Ask | Fill in the blank: the reported TGI of Cc1c(O)c(OC2OC(CO)C(O)C(O)C2O)cc2c1CC[C@@H]1C2(C)C(=O)C[C@]2(C)[C@@H]([C@@](C)(O)C(O)CCC(C)(C)O)[C@H](O)C[C@@]12C (some centres undefined) is ____.
Reply | > 100 µM

Ask | Fill in the blank: the reported TGI of CC1OC(OC2C(OC3CCC4(C)C(CCC5(C)C4CC=C4C6CC(C)(C)CCC6(CO)C(O)CC45C)C3(C)C)OC(C(=O)O)C(OC3OC(COC4OC(CO)C(O)C(O)C4O)C(O)C(O)C3O)C2O)C(O)C(O)C1O (centres undefined) is ____.
Reply | 23.6 µM

Ask | Fill in the blank: the reported TGI of CCOC(=O)/C(C#N)=N\Nc1ccc(-n2c(C)nc3ccc(Br)cc3c2=O)cc1 is ____.
Reply | > 100 µM

Ask | Fill in the blank: the reported TGI of O=c1[nH]nc(Cc2ccc(Cl)cc2)n1Nc1ccccc1 is ____.
Reply | > 100 µM

Ask | Fill in the blank: the reported TGI of O=C(CN1c2ccccc2Sc2ccccc21)n1cnc2ccccc21 is ____.
Reply | > 100 µM

Ask | Fill in the blank: the reported TGI of COc1ccc(/C=N/Nc2nc3ccccc3c(=O)n2-c2ccccc2)cc1 is ____.
Reply | > 100 µM

Ask | Fill in the blank: the reported TGI of c1cc(-c2ccc(Oc3ccc(-c4ccncc4)cc3)cc2)ccn1 is ____.
Reply | > 90.9 µM

Ask | Fill in the blank: the reported TGI of C/C(O)=C/c1nc2sc(C)c(C)c2c(=O)s1 is ____.
Reply | > 100 µM

Ask | Fill in the blank: the reported TGI of CC[C@]12C=CCN3CC[C@]4(C(=C(C(=O)OC)C1)Nc1ccccc14)[C@@H]32 is ____.
Reply | 58.1 µM

Ask | Fill in the blank: the reported TGI of COC(=O)[C@H]1[C@H](OC(=O)[C@@H](OC)c2ccccc2)ON2CC[C@@H](OC(=O)c3ccccc3)[C@H]12 is ____.
Reply | > 100 µM

Ask | Fill in the blank: the reported TGI of CC(C)Cn1cnnc1NS(=O)(=O)c1cc(C(=O)NN)c(Cl)cc1S is ____.
Reply | > 10 µM

Ask | Fill in the blank: the reported TGI of O=C(O)Cc1ccccc1 is ____.
Reply | > 2000 µM
